Exercise: for every item that follows, state its recorded pIC50.
System: SK-OV-3
Experiment: Antiproliferative activity against human SKOV3 cells after 48 hrs by CCK-8 assay
Type: functional, cell-based
Details: SK-OV-3, 48 h
pIC50: −log10 of the molar value.

Cc1ccc([C@H]2C[C@@H](c3ccccc3)Nc3c2cccc3P(c2ccccc2)c2ccccc2)cc1; < 4.30
O=P(c1ccccc1)(c1ccccc1)c1cccc2c1N[C@H](c1ccc(C(F)(F)F)cc1)C[C@@H]2c1ccccc1; < 4.30
O=P(c1ccccc1)(c1ccccc1)c1cccc2c1N[C@H](c1ccc(F)cc1)C[C@@H]2c1ccccc1; 4.62

What does the data say about its pIC50? Entry: `O=P(c1ccccc1)(c1ccccc1)c1cccc2c1N[C@H](c1cccc3ccccc13)C[C@@H]2c1ccccc1`
< 4.30

====

Target: DNA topoisomerase 1 (Homo sapiens) (UniProt P11387)
Assay: Inhibition of recombinant human topoisomerase 1-mediated DNA relaxation expressed in Saccharomyces cerevisiae TopI null strain RS190 at 80 uM using negatively supercoiled pUC18 as substrate pretreated with enzyme for 15 mins followed by substrate addition measured after 1 min by agarose gel electrophoresis
parameter.measured: inhibition (%)
Give bare numbers, in %.

O=P(c1ccccc1)(c1ccccc1)c1cccc2c(-c3ccccc3)cc(-c3ccccc3)nc12; 57
O=P(c1ccccc1)(c1ccccc1)c1cccc2c1N[C@H](c1ccccn1)C[C@@H]2c1ccccc1; 85
COc1ccccc1-c1cc(-c2ccccc2)c2cccc(P(=O)(c3ccccc3)c3ccccc3)c2n1; 83

Switching to the query record.
What measured inhibition goes with `O=P(c1ccccc1)(c1ccccc1)c1cccc2c1N[C@H](c1cccc3ccccc13)C[C@@H]2c1ccccc1` ?
63

====

Molecular target: DNA topoisomerase 1 (Homo sapiens)
Sequence (whole entry): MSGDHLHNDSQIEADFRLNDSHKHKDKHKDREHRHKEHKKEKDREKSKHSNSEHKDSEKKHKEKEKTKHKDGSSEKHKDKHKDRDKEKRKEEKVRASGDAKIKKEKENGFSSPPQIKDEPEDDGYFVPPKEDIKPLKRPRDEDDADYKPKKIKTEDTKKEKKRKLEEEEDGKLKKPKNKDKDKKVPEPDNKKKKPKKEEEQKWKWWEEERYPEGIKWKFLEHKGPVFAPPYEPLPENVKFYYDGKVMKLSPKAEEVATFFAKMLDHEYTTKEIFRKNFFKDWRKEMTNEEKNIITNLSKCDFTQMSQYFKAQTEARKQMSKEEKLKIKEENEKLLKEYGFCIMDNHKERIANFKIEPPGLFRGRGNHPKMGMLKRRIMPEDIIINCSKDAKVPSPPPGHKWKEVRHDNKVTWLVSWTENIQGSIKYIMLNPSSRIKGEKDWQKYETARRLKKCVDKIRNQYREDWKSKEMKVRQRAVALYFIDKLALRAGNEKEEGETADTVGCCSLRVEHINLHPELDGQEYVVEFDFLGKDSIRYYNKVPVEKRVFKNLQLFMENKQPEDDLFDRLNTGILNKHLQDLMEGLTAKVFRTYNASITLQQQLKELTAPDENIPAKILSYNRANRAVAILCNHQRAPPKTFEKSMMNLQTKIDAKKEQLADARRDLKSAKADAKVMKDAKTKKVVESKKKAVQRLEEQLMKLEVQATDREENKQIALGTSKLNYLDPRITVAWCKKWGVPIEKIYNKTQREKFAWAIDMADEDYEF
Experiment: Inhibition of recombinant human topoisomerase 1-mediated DNA relaxation expressed in Saccharomyces cerevisiae TopI null strain RS190 at 40 uM using negatively supercoiled pUC18 as substrate pretreated with enzyme for 15 mins followed by substrate addition measured after 3 mins by agarose gel electrophoresis
parameter.measured: inhibition (%)
One number for each entry, in %.

// worked examples, inhibition included
Fc1ccc([C@H]2C[C@@H](c3ccc(F)cc3)Nc3c2cccc3P(=S)(c2ccccc2)c2ccccc2)cc1; 17
O=P(c1ccccc1)(c1ccccc1)c1cccc2c1N[C@H](c1ccccn1)C[C@@H]2c1ccccc1; 24

Please look up its inhibition: `Cc1ccc([C@H]2C[C@@H](c3ccccc3)Nc3c2cccc3P(c2ccccc2)c2ccccc2)cc1`
17
